Every entry's value here was drawn from PubChem BioAssay.

Recorded measurements of z-score, one per entry
experiment: modulators of S6 phosphorylation in cells, primary screen, cell-based, A549, cytoblot, luminescence, serum-stimulated (AID 1158); conditions: A549 phospho-S6 cytoblot, 5 h, higher = more signal;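 also: serum-stimulated A549 lung adenocarcinoma cells; signal is phosphorylated S6 detected by cytoblot immunostaining with HRP secondary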
Field format: numeric only.

COc1ccc([Si](C)(C)[C@H]2[C@H](CCO)O[C@@]3(C(=O)N(Cc4ccc(N5C(=O)c6ccccc6Oc6ccccc65)cc4)c4ccccc43)[C@@H]2C)cc1 :: 0.211

Query block: Find the recorded z-score belonging to COC(=O)[C@@]1(Cc2ccc(F)cc2)[C@H]2c3cc(C(=O)N(C)C)n(Cc4c(CO)[nH]cc(C)c4=O)c3C[C@H]2CN1C(=O)c1ccccc1 and report it.
Result block: -0.122

Query block: Again, but for C=CCNC(=O)[C@H]1[C@@H]2C(=O)O[C@@H](c3ccccc3)[C@@H](c3ccccc3)N2[C@@H](c2ccc(OCCO)cc2)[C@]12C(=O)Nc1ccc(C#CCNC(N)=O)cc12
Result block: 0.326

Query block: Also check C=CC1c2cc(O)c(OC)cc2CCN1Cc1ccc([N+](=O)[O-])o1 (configuration not stated)
Result block: 0.325

Query block: Quick one: CCCCC(=C=CC[C@H](O)c1ccc(OCCO)cc1)C[C@H](O)COCc1ccccc1
Result block: -0.881

Query block: Follow-up entry: COC(=O)c1c2oc(c1C(=O)OC)C(=O)N1CCC[C@H]1Cn1nncc1CN(Cc1ccccc1)C(=O)N[C@H](CO)CC2
Result block: 0.429

Query block: Please answer likewise for COCCCNC(=O)[C@@]1(c2ccc([N+](=O)[O-])cc2)CC(=O)N(C(C)C)[C@@H]1c1ccc(CO)cc1
Result block: 0.361
